B1: Hairpin Ribozyme (parent)
chain: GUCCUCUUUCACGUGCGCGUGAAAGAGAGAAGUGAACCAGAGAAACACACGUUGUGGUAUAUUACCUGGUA

Variants of: B1
Test: self-cleavage, relative activity (ratio to wild type); higher = more cleavage; co-transcriptional
Class boundaries, taken from values of self-cleavage, are as follows: 1 (below 0.2), 2 (0.2 to below 0.3), 3 (0.3 or more)

Record excerpt, results attached:
GUCCUCUUUCACGUGCGCGUGAAAGAGAGAAGUGAACCAGAGAAACACAGGUUGUGGUAUAUUACCGGGUA [C50G U67G] ... 1
GUCCUCUUUCACGUGCGCGUGAAAGAGAGAAGUGAACCAGAGAAAAACACGUUGUGGUAUAUUACCUGGGA [C46A U70G] ... 1
GUCCUCUUUCACGUGCGCGUGAAAGAGAGAAAUGAACCAGAGAAACACACGUUGUGGUAUAUUACCUGGUG [G32A A71G] ... 1
GUCCUCUUUCACGUGCGCGUGAAAGAGAGAAGGGAACCAGAGAAACACACGUUGUGGUAUAUUACCGGGUA [U33G U67G] ... 1
GUCCUCUUUCACGUGCGCGUGAAAGAGAGAAGUGCACCAGAGAAACACACGUUGUGGUAUAUUACCUGGAA [A35C U70A] ... 3

(Q) Note: place this variant into its band. Item: GUCCUCUUUCACGUGCGCGUGAAAGAGAGAAGUGAACCAGCGAAACACACGUUGUGGUAUAUUACCUGGCA [A41C U70C]
(A) 3

(Q) Note: place this variant into its band. Item: GUCAUCUUUCACGUGCGCGUGAAAGAGAGAAGUGAACCAGAGAAACACACGUGGUGGUAUAUUACCUGGUA [C4A U53G]
(A) 2

(Q) Note: place this variant into its band. Item: GUCCUCUUUCACGUCCGCGUGAAAGAGAGAAGUGAACCAGAGAAACACACGUUGUGGUAUAUUACCUGGUG [G15C A71G]
(A) 3

(Q) Note: place this variant into its band. Item: GUCCUCUUUCACGUGCGCGUGAAAGAGAGAGGUGAACCAGAUAAACACACGUUGUGGUAUAUUACCUGGUA [A31G G42U]
(A) 1

(Q) Note: place this variant into its band. Item: GUCCUCUUUCACGUGCGCGUGAAAGAGAGAAGUGAACCAGAGAAACACACGUUGUGGUGUCUUACCUGGUA [A59G A61C]
(A) 3

(Q) Note: place this variant into its band. Item: GUCUUCUUUCACGUGCGCGUGAAAGAGAGAAGUGAACCAGAGAAACACACGUUGUGGGAUAUUACCUGGUA [C4U U58G]
(A) 2
